Source: paper PMC5778758

pIC50 values by entry
molecular target: bPepT1 (Bos taurus, UniProt A5D7E5); test: Inhibition of [3H]-Gly-Sar uptake in bPepT1-transfected CHO cells; details: 0.02 mmol/L [3H]-Gly-Sar (3.7 × 10^4 Bq/mL), unlabeled peptide 0.001–10 mmol/L, pH 6.0, 5 min, liquid scintillation counting, n = 4 (Fig. 6), CBD = cannot be determined, read-out: IC50 (inhibition of [3H]-Gly-Sar uptake), Bovine
Sequence (A5D7E5 1-707): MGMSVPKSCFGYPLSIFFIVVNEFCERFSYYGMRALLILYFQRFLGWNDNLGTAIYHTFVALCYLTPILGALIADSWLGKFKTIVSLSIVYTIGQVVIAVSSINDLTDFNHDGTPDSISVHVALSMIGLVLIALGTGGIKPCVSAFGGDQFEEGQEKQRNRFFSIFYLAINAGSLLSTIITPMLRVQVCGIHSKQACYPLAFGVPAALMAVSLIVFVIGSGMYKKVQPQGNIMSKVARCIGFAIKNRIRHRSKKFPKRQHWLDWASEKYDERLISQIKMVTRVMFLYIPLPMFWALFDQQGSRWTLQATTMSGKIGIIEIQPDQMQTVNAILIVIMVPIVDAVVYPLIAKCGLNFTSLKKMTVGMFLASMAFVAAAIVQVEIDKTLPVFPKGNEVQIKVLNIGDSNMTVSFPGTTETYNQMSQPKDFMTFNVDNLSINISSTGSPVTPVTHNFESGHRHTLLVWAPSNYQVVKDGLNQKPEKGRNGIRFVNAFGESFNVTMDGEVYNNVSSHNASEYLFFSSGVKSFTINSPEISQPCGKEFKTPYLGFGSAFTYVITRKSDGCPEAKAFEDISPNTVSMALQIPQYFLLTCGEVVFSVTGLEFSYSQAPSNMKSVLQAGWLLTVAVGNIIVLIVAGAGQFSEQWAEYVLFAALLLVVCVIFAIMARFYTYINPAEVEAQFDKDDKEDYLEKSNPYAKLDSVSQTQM
Peptide text beside a SMILES is read from it.
Scale: negative log10 of molar concentration, which is what pIC50 denotes.

The cases that follow already have their pIC50 on record.
compound	tested system	pIC50
CSCC[C@H](N)C(=O)N[C@@H](CC(C)C)C(=O)N[C@@H](Cc1ccccc1)C(=O)O	bPepT1 (Bos taurus, UniProt A5D7E5)	4.30
CSCC[C@H](NC(=O)[C@H](CCSC)NC(=O)CNC(=O)[C@@H](N)CCSC)C(=O)O [Met-Gly-Met-Met] (H-MGMM-OH)	bPepT1 (Bos taurus, UniProt A5D7E5)	2.22
CSCC[C@H](N)C(=O)N[C@@H](CCC(=O)O)C(=O)O [Met-Glu] (H-Met-Glu-OH)	bPepT1 (Bos taurus, UniProt A5D7E5)	4.64
CSCC[C@H](N)C(=O)N[C@@H](CC(C)C)C(=O)O [Met-Leu] (H-Met-Leu-OH)	bPepT1 (Bos taurus, UniProt A5D7E5)	4.10

Challenge: Could you share what pIC50 was measured for `NCCCC[C@H](NC(=O)[C@@H](N)CCCCN)C(=O)O` , tested on bPepT1 (Bos taurus, UniProt A5D7E5)?
Response given: 2.02

Challenge: Input CC(C)C[C@H](N)C(=O)NCC(=O)NCC(=O)O [Leu-Gly-Gly] (H-Leu-Gly-Gly-OH)
Response given: 2.68
